# assay-protocol: photoluminescence quantum yield (fraction); solvent given as SMILES
# condition: in ClCCl
Please assign F whenever photoluminescence quantum yield is at or above 0.3, and T whenever it is below.

Request: I wonder whether N#CC1N=c2cc3c4c(cccc4c2=NC1C#N)C(c1ccccc1)=C(c1ccccc1)O3 (stereo not drawn) has photoluminescence quantum yield below 0.3. Can you tell?
Response: T

Request: I wonder whether CC1=CC(C)=[N+]2C1=Cc1c(C)cc(C)n1[B-]2(F)F has photoluminescence quantum yield below 0.3. Can you tell?
Response: F

Request: I wonder whether CN(C)c1ccc(-c2nc3c(c4c2-c2ccccc2CC4)-c2ccccc2CC3)cc1 has photoluminescence quantum yield below 0.3. Can you tell?
Response: T

Request: I wonder whether CC1=C(C)C(c2c(C)c(C)c3n2[B-](F)(F)[N+]2=C(C)C(C)=C(C)C2=C3)=[N+]2C1=Cc1c(C)c(C)c(C)n1[B-]2(F)F has photoluminescence quantum yield below 0.3. Can you tell?
Response: F
